Known pIC50 of a selection of compounds
- Target of assay: hNav1.7 (Homo sapiens (Human), UniProt Q15858)
- Sequence (Q15858 whole entry, looked up): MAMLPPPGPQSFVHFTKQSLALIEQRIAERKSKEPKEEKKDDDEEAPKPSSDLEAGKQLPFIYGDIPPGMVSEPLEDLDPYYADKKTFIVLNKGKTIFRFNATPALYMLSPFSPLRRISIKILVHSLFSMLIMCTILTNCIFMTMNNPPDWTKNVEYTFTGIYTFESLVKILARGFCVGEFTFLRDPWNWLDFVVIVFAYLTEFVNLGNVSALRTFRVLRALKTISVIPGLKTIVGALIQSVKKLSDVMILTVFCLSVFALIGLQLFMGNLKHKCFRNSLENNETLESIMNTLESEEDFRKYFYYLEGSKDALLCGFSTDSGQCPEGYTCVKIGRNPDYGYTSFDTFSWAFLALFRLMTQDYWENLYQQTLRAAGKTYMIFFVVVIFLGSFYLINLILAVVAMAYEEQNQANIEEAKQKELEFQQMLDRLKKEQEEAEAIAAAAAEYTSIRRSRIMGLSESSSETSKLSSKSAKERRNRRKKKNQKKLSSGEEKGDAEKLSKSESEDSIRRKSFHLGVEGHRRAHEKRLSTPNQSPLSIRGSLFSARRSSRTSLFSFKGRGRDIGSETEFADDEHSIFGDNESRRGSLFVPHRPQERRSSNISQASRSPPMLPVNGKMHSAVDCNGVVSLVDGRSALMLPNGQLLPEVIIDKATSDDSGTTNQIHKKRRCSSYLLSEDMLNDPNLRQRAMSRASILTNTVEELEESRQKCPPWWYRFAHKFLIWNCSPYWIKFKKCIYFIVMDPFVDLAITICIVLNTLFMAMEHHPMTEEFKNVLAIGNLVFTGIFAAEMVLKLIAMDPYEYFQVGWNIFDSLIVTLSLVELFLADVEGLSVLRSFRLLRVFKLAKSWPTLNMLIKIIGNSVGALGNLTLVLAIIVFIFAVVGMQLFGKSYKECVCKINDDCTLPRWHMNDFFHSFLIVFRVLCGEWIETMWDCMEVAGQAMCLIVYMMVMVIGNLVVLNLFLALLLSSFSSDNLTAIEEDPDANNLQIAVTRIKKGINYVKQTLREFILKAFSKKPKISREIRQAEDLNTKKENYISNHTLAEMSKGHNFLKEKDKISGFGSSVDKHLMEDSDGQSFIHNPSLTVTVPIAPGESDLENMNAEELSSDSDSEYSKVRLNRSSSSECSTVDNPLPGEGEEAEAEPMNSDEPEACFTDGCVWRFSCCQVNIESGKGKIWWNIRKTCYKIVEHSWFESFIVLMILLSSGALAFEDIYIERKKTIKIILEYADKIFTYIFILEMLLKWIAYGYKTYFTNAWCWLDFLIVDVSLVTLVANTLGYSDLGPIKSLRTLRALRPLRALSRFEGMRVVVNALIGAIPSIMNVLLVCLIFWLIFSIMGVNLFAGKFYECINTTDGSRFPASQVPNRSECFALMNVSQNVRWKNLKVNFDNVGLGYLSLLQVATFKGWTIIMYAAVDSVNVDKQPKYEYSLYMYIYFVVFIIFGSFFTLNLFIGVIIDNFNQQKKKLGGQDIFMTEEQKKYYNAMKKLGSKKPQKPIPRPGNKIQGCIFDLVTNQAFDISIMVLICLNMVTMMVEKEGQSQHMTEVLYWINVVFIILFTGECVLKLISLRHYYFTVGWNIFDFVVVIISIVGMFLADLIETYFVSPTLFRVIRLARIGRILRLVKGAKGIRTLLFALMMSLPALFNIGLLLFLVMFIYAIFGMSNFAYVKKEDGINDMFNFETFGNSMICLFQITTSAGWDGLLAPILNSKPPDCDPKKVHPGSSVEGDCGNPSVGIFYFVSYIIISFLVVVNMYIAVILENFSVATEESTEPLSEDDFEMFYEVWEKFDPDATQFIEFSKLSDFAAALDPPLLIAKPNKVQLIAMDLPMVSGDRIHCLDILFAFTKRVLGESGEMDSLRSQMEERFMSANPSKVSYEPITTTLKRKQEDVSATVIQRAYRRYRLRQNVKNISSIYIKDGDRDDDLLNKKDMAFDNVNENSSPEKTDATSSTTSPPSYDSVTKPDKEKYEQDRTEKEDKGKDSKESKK
- Sequence (Q07699 whole entry partner, looked up): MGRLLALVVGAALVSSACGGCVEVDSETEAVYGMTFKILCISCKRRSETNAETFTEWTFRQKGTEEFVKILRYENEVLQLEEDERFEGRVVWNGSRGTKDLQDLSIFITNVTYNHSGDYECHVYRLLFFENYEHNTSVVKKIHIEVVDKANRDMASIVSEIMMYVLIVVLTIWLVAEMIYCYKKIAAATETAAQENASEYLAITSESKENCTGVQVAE
- Assay explanation: Tritiated compound binding to membranes from cells expressing hNav1.7 and the β1 subunit, competitive binding (LBA, Ex. 243A)
- Cond: 100 pM [3H]compound, 18 h, room temperature; read-out: Nav1.7 LBA (Ex. 243A) IC50
pIC50: −log10 of the molar value. Structures can show the parent of a compound that is named as a salt.

{"columns": ["Compound", "Target of assay", "pIC50"],
 "data": [
  ["CN(C1CNC1)[C@H]1CCCC[C@@H]1Oc1cc(F)c(S(=O)(=O)Nc2nccs2)cc1Cl [Example 66, formate]", "hNav1.7 (Homo sapiens (Human), UniProt Q15858)", 8.68],
  ["CN(C1COC1)[C@H]1CCCC[C@@H]1Nc1cc(F)c(S(=O)(=O)Nc2nccs2)cc1Cl", "hNav1.7 (Homo sapiens (Human), UniProt Q15858)", 7.44],
  ["CN(C)[C@@H]1C[C@@H](C(F)(F)F)CC[C@H]1Nc1cc(F)c(S(=O)(=O)Nc2nccs2)cc1Cl", "hNav1.7 (Homo sapiens (Human), UniProt Q15858)", 5.76],
  ["CC1CCCN1[C@H]1CCCC[C@@H]1Nc1cc(F)c(S(=O)(=O)Nc2nccs2)cc1Cl (stereo partly drawn)", "hNav1.7 (Homo sapiens (Human), UniProt Q15858)", 7.13],
  ["CN(C)[C@@H]1C[C@H](C(F)(F)F)CC[C@H]1Nc1cc(F)c(S(=O)(=O)Nc2nccs2)cc1Cl", "hNav1.7 (Homo sapiens (Human), UniProt Q15858)", 7.03],
  ["CN(C1CNC1)[C@H]1CCCC[C@@H]1Nc1cc(F)c(S(=O)(=O)Nc2cccc(F)n2)cc1Cl", "hNav1.7 (Homo sapiens (Human), UniProt Q15858)", 8.13],
  ["CN(C)[C@H]1C[C@@H](C(F)(F)F)CC[C@@H]1Nc1cc(F)c(S(=O)(=O)Nc2nccs2)cc1Cl", "hNav1.7 (Homo sapiens (Human), UniProt Q15858)", 8.47],
  ["CN(C)[C@H]1CCCC[C@@H]1Nc1cc(F)c(S(=O)(=O)Nc2cscn2)cc1Cl", "hNav1.7 (Homo sapiens (Human), UniProt Q15858)", 6.11],
  ["CN(CCO)[C@H]1CCCC[C@@H]1Nc1cc(F)c(S(=O)(=O)Nc2nccs2)cc1C1CC1 [Example 56, hydrochloride]", "hNav1.7 (Homo sapiens (Human), UniProt Q15858)", 8.46]
]}

Data origin: patent US10457654B2
